- assay target: T1, TIGIT (SPR analyte) (human, UniProt Q495A1 22-141, limits assumed)
- T1 construct: the text says only 'TIGIT was used as the analyte'; The construct is not described; also called human TIGIT
- T1 sequence (looked up): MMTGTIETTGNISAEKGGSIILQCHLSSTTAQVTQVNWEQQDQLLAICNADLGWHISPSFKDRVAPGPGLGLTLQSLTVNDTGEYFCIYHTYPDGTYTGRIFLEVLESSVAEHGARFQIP
- method: SPR (Biacore 8K), antibody captured through Fc, TIGIT as analyte
readout kind: koff (s⁻¹)
// units = s⁻¹; emit number, no label

Input line: Complete the entry with koff for VH3 + VL4 (antibody, human IgG1, kappa, V domains shown, Humanized full-length IgG; also called HC2 + LC3) VH: QVQLVQSGAEVKKPGASVKVSCKASGYTFSRYWIEWVRQAPGQGLEWMGEIFPGSGGTNYNEKFKGRVTMTRDTSTSTVYMELSSLRSEDTAVYYCARHLGALDYWGQGTLVTVSS VL: DIVMTQSPDSLAVSLGERATINCSASSSVSYIHWYQQKPGQPPKLLIYRTSNLASGVPDRFSGSGSGTDFTLTISSLQAEDVAVYYCQQYHSNPWTFGGGTKLEIKR
Output line: 4.38e-05

Input line: Supply koff value. Item: VH3 + VL3 (antibody, human IgG1, kappa, V domains shown, Humanized full-length IgG; also called HC2 + LC2) VH: QVQLVQSGAEVKKPGASVKVSCKASGYTFSRYWIEWVRQAPGQGLEWMGEIFPGSGGTNYNEKFKGRVTMTRDTSTSTVYMELSSLRSEDTAVYYCARHLGALDYWGQGTLVTVSS VL: EIVLTQSPGTLSLSPGERATLSCSASSSVSYIHWYQQKPGQAPRLLIYRTSNLASGIPDRFSGSGSGTDFTLTISRLEPEDFAVYYCQQYHSNPWTFGGGTKLEIKR
Output line: 3.25e-05

Input line: Please list koff recorded for the binder VH4 + VL2 (antibody, human IgG1, kappa, V domains shown, Humanized full-length IgG; also called HC3 + LC1) VH: EVQLVQSGAEVKKPGESLKISCKGSGYTFSRYWIEWVRQMPGKGLEWMGEIFPGSGGTNYNEKFKGQVTISADKSISTAYLQWSSLKASDTAMYYCARHLGALDYWGQGTLVTVSS VL: DIQMTQSPSSLSASVGDRVTITCSASSSVSYIHWYQQKPGKAPKLLIYRTSNLASGVPSRFSGSGSGTDFTLTISSLQPEDFATYYCQQYHSNPWTFGGGTKLEIKR
Output line: 4.97e-05

Input line: Report measured koff; entry is Chimeric VH+VL (Parental mouse VH+VL combined with human Fc) (antibody, human IgG1, kappa, V domains shown, also called chimeric antibody) VH: QVQLQQSGAELMKPGASVKISCKATGYTFSRYWIEWVKQRPGHGLEWIGEIFPGSGGTNYNEKFKGKATFTADTSSNTAYMQLTSLTSEDSAVYYCARHLGALDYWGQGTSVTVSS VL: QIVLTQSPAIMSASPGEKVTISCSASSSVSYIHWYQQKAGSSPKPWIYRTSNLASGVPARLSGSGSGTSYFLTISSMEAEDAATYYCQQYHSNPWTFGGGTKLEIKR
Output line: 5.56e-05

Source of measurements: patent US20240239887A1
